- METHOD_DESCRIPTION: Lipophilicity, logP of compound by HPLC analysis
- Type: physicochemical
- EXPERIMENTAL_PARAMETERS: read-out: logP
ENDPOINT_LABEL: logP

P: O=C(Nc1ccc(OC(F)(F)F)c(F)c1)NC1CCN(C(=O)C2CC2)CC1
Q: CC[C@H](C)C(=O)N1CCC(NC(=O)Nc2ccc(OC(F)(F)F)c(F)c2)CC1
Query :: Lab note: check whether P or Q shows the higher recorded logP. Lab note: record the label of whichever item you select.
Result :: Q

---

- Test system: CYP2B6
- METHOD_DESCRIPTION: Induction of CYP2B6 mRNA expression in human hepatocytes up to 30 uM relative to positive control
- Format: ADME, cell-based, Hepatocyte
- EXPERIMENTAL_PARAMETERS: read-out: Activity
ENDPOINT_LABEL: Emax

Query :: Which measured Emax value corresponds to "CC[C@H](C)C(=O)N1CCC(NC(=O)Nc2ccc(OC(F)(F)F)c(F)c2)CC1" ?
Result :: < 20%
